# measured_on: T1, human IL-12Rβ2, Acro (BLI analyte) (human, UniProt Q99665 24-622, limits assumed)
# T1 sequence (looked up): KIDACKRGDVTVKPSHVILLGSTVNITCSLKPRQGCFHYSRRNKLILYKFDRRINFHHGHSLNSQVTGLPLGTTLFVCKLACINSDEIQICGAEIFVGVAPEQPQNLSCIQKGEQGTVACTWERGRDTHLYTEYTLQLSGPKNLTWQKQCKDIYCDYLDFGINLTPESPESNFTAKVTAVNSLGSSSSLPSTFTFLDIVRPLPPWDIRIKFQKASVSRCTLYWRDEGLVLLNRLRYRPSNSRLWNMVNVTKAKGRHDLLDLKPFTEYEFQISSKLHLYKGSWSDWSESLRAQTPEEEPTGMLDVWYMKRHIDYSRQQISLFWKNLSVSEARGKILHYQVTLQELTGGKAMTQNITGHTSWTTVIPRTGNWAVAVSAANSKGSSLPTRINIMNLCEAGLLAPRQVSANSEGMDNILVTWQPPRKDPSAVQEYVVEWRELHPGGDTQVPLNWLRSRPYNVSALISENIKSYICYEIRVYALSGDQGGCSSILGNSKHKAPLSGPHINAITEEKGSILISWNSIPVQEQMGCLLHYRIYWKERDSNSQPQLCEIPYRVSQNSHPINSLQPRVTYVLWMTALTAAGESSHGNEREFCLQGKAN
# assay_protocol: BLI (Octet), antibody on AHC tip
recorded_endpoint: pKd
Scale: pKd equals -log10([C]), with [C] in mol/L.

Incoming: Reported pKd for DGL551 (bispecific antibody, V domains shown, 195B1 x 185B2) V domain 1: QVQLVESGGGLVQAGGSLRLSCAASGRTFGTYAMGWFRQAPGKERDFVARISNSGAFTHYADSVKGRFTISRDNAKNTVYLHMNSLENGDTAAYYCVATRGTNSAYYTRSTMYEYWGQGTQVTVEP V domain 2: QVQLVESGGGLVQAGGSLRLSCAASGRTFSRYRMGWFRQAPGKEREFVAAITKSGATTYDADSVKGRFTISRDNAKNTLYLQMNSLKPEDTAVYYCAASYHSNWWPKNADEYAYWGQGTQVTVEP : what is it?
Outgoing: 8.08
